For each of the molecules below, state its pKi.
- System under test: purified LasB protein from P. aeruginosa (Pseudomonas aeruginosa, UniProt P14756)
- Construct: purchased Merck or Charles River Laboratories
- Assay protocol: Fluorometric assay to determine Ki (Abz-Ala-Gly-Leu-Ala-p-Nitro-Benzyl-Amide substrate)
- Format: biochemical
- Experimental conditions: Ki calculated from IC50, [S] = 250 µM, Km = 214 µM; 37°C, pH 7.4
pKi: −log10 of the molar value.

input: Give pKi (purified LasB protein from P. aeruginosa (Pseudomonas aeruginosa, UniProt P14756)) of the following molecule: COc1ccc(-c2csc(CNC(=O)C3(CC(=O)O)Cc4ccccc4C3)n2)cc1S(=O)(=O)N1CCN(C)CC1
output: 6.70 to 7.30

input: Same for CN(C)C1CN(c2ccc(-c3csc(CNC(=O)C4(CC(=O)O)Cc5ccccc5C4)n3)cc2)C1
output: 6.70 to 7.30

input: Same for CN1CCN(C(=O)COc2cccc(-c3csc(CNC(=O)C4(CC(=O)O)Cc5ccccc5C4)n3)c2)CC1
output: 5.00 to 6.70

input: Same for CN1CCN(C(=O)Cn2cc(-c3csc(CNC(=O)C4(CC(=O)O)Cc5ccccc5C4)n3)cn2)CC1
output: 5.00 to 6.70

input: Same for C[N+]1(CCCn2cc(-c3csc(CNC(=O)C4(CC(=O)[O-])Cc5ccccc5C4)n3)cn2)CCOCC1
output: 5.00 to 6.70

input: Same for C[N+]1(C)CCC(C(=O)N2CC[N+](C)(CCCn3cc(-c4csc(CNC(=O)C5(CC(=O)O)Cc6ccccc6C5)n4)cn3)CC2)CC1
output: 5.00 to 6.70

---

For each of the compounds below, state its inhibition at 25 µM.
- System under test: LasB (Pseudomonas aeruginosa, UniProt P14756)
- Construct: uses as source of enzyme dialysed supernatant from P. aeruginosa PAO1; endogenous in cells; host or cells: P. aeruginosa PAO1 culture supernatant, filtered and dialysed
- Sequence (P14756 198-498): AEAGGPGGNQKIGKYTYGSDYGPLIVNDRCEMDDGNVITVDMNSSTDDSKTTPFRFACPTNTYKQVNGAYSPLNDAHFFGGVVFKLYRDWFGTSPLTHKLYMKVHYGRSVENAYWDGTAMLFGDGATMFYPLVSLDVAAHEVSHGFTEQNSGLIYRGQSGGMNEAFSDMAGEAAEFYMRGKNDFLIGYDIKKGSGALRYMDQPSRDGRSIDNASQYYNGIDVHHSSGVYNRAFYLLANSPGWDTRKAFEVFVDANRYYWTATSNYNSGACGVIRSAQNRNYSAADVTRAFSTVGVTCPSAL
- Assay protocol: Elastin assay to determine % inhibition (Elastin Congo-Red, dialysed culture supernatant)
- Format: biochemical, P. aeruginosa PAO1
- Experimental conditions: read-out: Elastin hydrolysis % inhibition @ 50 / 25 µM inhibitor concentration

input: Query: inhibition at 25 µM; subject: O=C(O)CC1(C(=O)NCc2nc(-c3ccccc3)cs2)Cc2ccccc2C1 [Example 1]
output: > 75%

input: Same for O=C(O)CC1(C(=O)NCc2nc(-c3ccccc3OC(F)(F)F)cs2)Cc2ccccc2C1 [Example 145]
output: 60 to 75%

input: Same for O=C(O)CC1(C(=O)NCc2nc(-c3ccc(O)cc3)cs2)Cc2ccccc2C1 [Example 11]
output: 60 to 75%

input: Same for Cn1ccc(-c2csc(CNC(=O)C3(CC(=O)O)Cc4ccccc4C3)n2)n1 [Example 90]
output: 60 to 75%

input: Same for CN1C[C@@H]2CN(c3ccc(-c4csc(CNC(=O)C5(CC(=O)O)Cc6ccccc6C5)n4)cc3)C[C@@H]2C1 [Example 30]
output: 10 to 60%

input: Same for O=C(O)CC1(C(=O)NCc2ncc(-c3ccccc3)s2)Cc2ccccc2C1 [Example 2]
output: 10 to 60%

input: Same for CN(C)C1CN(C(=O)c2ccc(-c3csc(CNC(=O)C4(CC(=O)O)Cc5ccccc5C4)n3)cc2)C1 [Example 20]
output: 60 to 75%

input: Same for COc1cc(OCCN2CCN(C)C(=O)C2)ccc1-c1csc(CNC(=O)C2(CC(=O)O)Cc3ccccc3C2)n1 [Example 83]
output: > 75%

input: Same for COc1cc(OCc2cc[n+](C)cc2)ccc1-c1csc(CNC(=O)C2(CC(=O)[O-])Cc3ccccc3C2)n1 [Example 75]
output: 60 to 75%

input: Same for O=C(O)CC1(C(=O)NCc2nc(-c3ccc(OCCCN4CCCC4)cc3)cs2)Cc2ccccc2C1 [Example 58]
output: 60 to 75%

input: Same for O=C(O)CC1(C(=O)NCc2nc(-c3ccc(Cl)cc3)cs2)Cc2ccccc2C1 [Example 7]
output: 60 to 75%

input: Same for CN1CCN(c2ccc(-c3csc(CNC(=O)C4(CC(=O)O)Cc5ccccc5C4)n3)cn2)CC1 [Example 34]
output: 60 to 75%

input: Same for CN(C)CC(=O)Nc1ccc(-c2csc(CNC(=O)C3(CC(=O)O)Cc4ccccc4C3)n2)cc1 [Example 39]
output: 60 to 75%

input: Same for C[N+]1(CCOc2ccc(-c3csc(CNC(=O)C4(CC(=O)[O-])Cc5ccccc5C4)n3)cc2)CCOCC1 [Example 50]
output: 60 to 75%

input: Same for CN(C)[C@@H]1CCN(C(=O)c2ccc(-c3csc(CNC(=O)C4(CC(=O)O)Cc5ccccc5C4)n3)cc2)C1 [Example 19]
output: 60 to 75%

input: Same for C[N+]1(CCCOc2ccc(-c3csc(CNC(=O)C4(CC(=O)[O-])Cc5ccccc5C4)n3)cc2)CCOCC1 [Example 56]
output: 60 to 75%

---

- System under test: LasB (Pseudomonas aeruginosa)
- Construct: uses as source of enzyme dialysed supernatant from P. aeruginosa PAO1; endogenous in cells; host or cells: P. aeruginosa PAO1 culture supernatant, filtered and dialysed
- Assay protocol: Elastin assay to determine % inhibition (Elastin Congo-Red, dialysed culture supernatant)
- Format: biochemical, P. aeruginosa PAO1
- Experimental conditions: read-out: Elastin hydrolysis % inhibition @ 50 / 25 µM inhibitor concentration
Recorded metric: inhibition at 25 µM

input: Query: inhibition at 25 µM; subject: O=C(O)CC1(C(=O)NCc2nc(-c3ccccc3OCCO)cs2)Cc2ccccc2C1 [Example 13]
output: 60 to 75%

input: Same for COc1ccc(S(=O)(=O)N2CCC([N+](C)(C)C)CC2)cc1-c1csc(CNC(=O)C2(CC(=O)[O-])Cc3cc(F)c(F)cc3C2)n1 [Example 126]
output: 60 to 75%

input: Same for CN1CCC(C(=O)N2CCN(CCCn3cc(-c4csc(CNC(=O)C5(CC(=O)O)Cc6ccccc6C5)n4)cn3)CC2)CC1 [Example 114]
output: 60 to 75%

input: Same for CN1CCN(C(=O)COc2ccc(-c3csc(CNC(=O)C4(CC(=O)O)Cc5ccccc5C4)n3)cn2)CC1 [Example 38]
output: 60 to 75%

input: Same for COc1ccc(-c2csc(CNC(=O)C3(CC(=O)[O-])Cc4ccccc4C3)n2)cc1C(=O)N1CCC([N+](C)(C)C)CC1 [Example 138]
output: 10 to 60%

input: Same for O=C(O)CC1(C(=O)NCc2nc(-c3cccc(O)c3)cs2)Cc2ccccc2C1 [Example 12]
output: 60 to 75%

input: Same for CN(C)CC(=O)N1CCC(n2cc(-c3csc(CNC(=O)C4(CC(=O)O)Cc5ccccc5C4)n3)cn2)CC1 [Example 103]
output: 60 to 75%

input: Same for COc1cc(OCCN2CCN(C(C)=O)CC2)ccc1-c1csc(CNC(=O)C2(CC(=O)O)Cc3ccccc3C2)n1 [Example 88]
output: > 75%

input: Same for COc1cc(OCc2ccc[n+](C)c2)ccc1-c1csc(CNC(=O)C2(CC(=O)[O-])Cc3ccccc3C2)n1 [Example 77]
output: 10 to 60%

input: Same for O=C(O)CC1(C(=O)NCc2nc(-c3ccccc3O)cs2)Cc2ccccc2C1 [Example 10]
output: 10 to 60%

input: Same for COc1cc(OCCCN2CCOCC2)ccc1-c1csc(CNC(=O)C2(CC(=O)O)Cc3ccccc3C2)n1 [Example 71]
output: > 75%

input: Same for C[N+]1(C)CCN(S(=O)(=O)c2cccc(-c3csc(CNC(=O)C4(CC(=O)[O-])Cc5ccccc5C4)n3)c2)CC1 [Example 128]
output: 10 to 60%

input: Same for COc1cc(OCC(=O)N2CC([N+](C)(C)C)C2)ccc1-c1csc(CNC(=O)C2(CC(=O)[O-])Cc3cc(F)c(F)cc3C2)n1 [Example 64]
output: 60 to 75%

input: Same for COc1cc(OCc2cccnc2)ccc1-c1csc(CNC(=O)C2(CC(=O)O)Cc3ccccc3C2)n1 [Example 78]
output: > 75%

input: Same for COc1cc(OCCc2nccn2C)ccc1-c1csc(CNC(=O)C2(CC(=O)O)Cc3ccccc3C2)n1 [Example 85]
output: 60 to 75%

---

For each of the molecules below, state its Ki.
- System under test: purified LasB protein from P. aeruginosa (Pseudomonas aeruginosa)
- Construct: purchased Merck or Charles River Laboratories
- Assay protocol: Fluorometric assay to determine Ki (Abz-Ala-Gly-Leu-Ala-p-Nitro-Benzyl-Amide substrate)
- Type: biochemical

input: Query: Ki; subject: COc1ccc(C(=O)NCCN(C)C)cc1-c1csc(CNC(=O)C2(CC(=O)O)Cc3ccccc3C2)n1
output: 200 to 10000 nM

input: Same for O=C(O)CC1(C(=O)NCc2nc(-c3ccccn3)cs2)Cc2ccccc2C1
output: 200 to 10000 nM

input: Same for C[N+]1(C)CCN(C(=O)c2ccc(-c3csc(CNC(=O)C4(CC(=O)[O-])Cc5ccccc5C4)n3)cc2)CC1
output: 200 to 10000 nM

input: Same for O=C(O)CC1(C(=O)NCc2nc(-c3ccc(OCCCN4CCOCC4)cc3)cs2)Cc2ccccc2C1
output: 50 to 200 nM

input: Same for COc1ccccc1-c1csc(CNC(=O)C2(CC(=O)O)Cc3ccccc3C2)n1
output: 50 to 200 nM

input: Same for NC1CCN(C(=O)COc2ccc(-c3csc(CNC(=O)C4(CC(=O)O)Cc5ccccc5C4)n3)cc2)CC1
output: 50 to 200 nM

input: Same for CN1CCN(S(=O)(=O)c2cc(-c3csc(CNC(=O)C4(CC(=O)O)Cc5ccccc5C4)n3)ccc2OCCCN2CCOCC2)CC1
output: < 50 nM
